molecular target: trypanothione reductase (TR) (Leishmania infantum, UniProt A4HSF7)
Sequence (A4HSF7 1-491): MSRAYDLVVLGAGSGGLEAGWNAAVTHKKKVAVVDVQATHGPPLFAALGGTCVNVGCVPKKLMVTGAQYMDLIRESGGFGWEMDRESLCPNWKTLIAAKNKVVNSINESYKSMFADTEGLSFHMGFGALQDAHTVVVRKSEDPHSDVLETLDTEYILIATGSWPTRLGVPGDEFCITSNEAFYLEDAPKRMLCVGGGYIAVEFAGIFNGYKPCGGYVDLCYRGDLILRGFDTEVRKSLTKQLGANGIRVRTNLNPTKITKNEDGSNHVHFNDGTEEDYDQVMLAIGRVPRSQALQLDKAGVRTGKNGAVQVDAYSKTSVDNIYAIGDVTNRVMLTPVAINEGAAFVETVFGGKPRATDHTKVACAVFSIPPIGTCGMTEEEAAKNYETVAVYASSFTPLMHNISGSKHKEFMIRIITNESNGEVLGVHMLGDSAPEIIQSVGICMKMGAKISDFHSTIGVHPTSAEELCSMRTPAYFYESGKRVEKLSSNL

{"molecule": "CCC(C)Oc1cc(N)nc(Sc2cccc(Cl)c2)n1 (stereo not shown)", "experimental.target": "trypanothione reductase (TR) (Leishmania infantum, UniProt A4HSF7)", "Ki": "250 nM"}

Measured values drawn from paper PMC6010130 for this set.
